Attribution: PubChem BioAssay (NCI)

system: OVCAR-5 ovarian; assay: NCI tumour cell line growth inhibition, 48 h
Property name: TGI

Prompt: Would you mind telling me what TGI value was observed for `Cc1cn2c(/C=N/N=C(N)N)c(-c3cc(Cl)sc3Cl)nc2s1` ?
Completion: 1.59 µM

Prompt: What about this compound? `Cc1nc2sc(C(=O)Nc3cccc(Cl)c3C)c(N)c2cc1C(=O)c1ccccc1`
Completion: > 50 µM

Prompt: And for O=C1CCCCCCCCCCC1CN(Cc1ccccc1)Cc1ccccc1 (stereo not drawn) ?
Completion: > 100 µM

====

system: SNB-75 CNS; experiment: NCI tumour cell line growth inhibition, 48 h
Property name: TGI

Prompt: Reported TGI, molecule COc1ccc(N2C(=O)C3c4[nH]c5cc(Cl)ccc5c4C4CCC(C(C)(C)C)CC4C3C2=O)cc1 (stereo not given) : ____
Completion: > 100 µM

Prompt: Request: `COC(=O)CCSC1=CC(=O)c2nc3ccccc3c3ccnc1c23`
Completion: > 100 µM

Prompt: Now consider O=c1[nH]c(=O)n(C2OC(CO)C(O)C2O)cc1OCc1ccccc1 (stereo not given) and answer again.
Completion: > 100 µM

Prompt: And `O=C(Nc1cccc(-n2cc(-c3ccncc3)c(-c3ccc(O)c(Cl)c3)n2)c1)c1ccc(N2CCOCC2)c(C(F)(F)F)c1` ?
Completion: > 50 µM

Prompt: What about this molecule? C=CCCC(O)c1ccc(CCCCCCCCCCC)o1 (stereo not given)
Completion: 28.6 µM
